conditions: in ethyl acetate, 283.15 K
MEASUREMENT_KIND: solubility (mole fraction)
Field format: numeric only.

Q. # query: solubility (mole fraction) of entry "NC(=O)c1ccc([N+](=O)[O-])cc1"
A. 0.00203

###

conditions: in isopropanol, 318.15 K
MEASUREMENT_KIND: solubility (mole fraction)
Reply with just the number.

Q. // solubility (mole fraction) lookup, key: "NC(=O)c1ccc([N+](=O)[O-])cc1"
A. 0.00492

###

details: in ethanol, 283.15 K
MEASUREMENT_KIND: solubility (mole fraction)
Form field (numeric): enter value without unit.

Q. Report solubility (mole fraction) for "NC(=O)c1ccc([N+](=O)[O-])cc1" please.
A. 0.00157

###

conditions: in isopropanol, 323.15 K
MEASUREMENT_KIND: solubility (mole fraction)
In your answer, state the number alone without any accompanying words.

Q. Any idea what its solubility (mole fraction) is? The molecule is "NC(=O)c1ccc([N+](=O)[O-])cc1"
A. 0.00579

###

details: in isobutanol, 303.15 K
MEASUREMENT_KIND: solubility (mole fraction)

Q. # lookup: solubility (mole fraction) of "NC(=O)c1ccc([N+](=O)[O-])cc1"
A. 0.00187

###

conditions: in n-propanol, 308.15 K
MEASUREMENT_KIND: solubility (mole fraction)

Q. Look up solubility (mole fraction): "NC(=O)c1ccc([N+](=O)[O-])cc1"
A. 0.00276

###

conditions: in n-propanol, 313.15 K
MEASUREMENT_KIND: solubility (mole fraction)

Q. Which measured solubility (mole fraction) value corresponds to "NC(=O)c1ccc([N+](=O)[O-])cc1" ?
A. 0.00327

###

conditions: in acetonitrile, 323.15 K
MEASUREMENT_KIND: solubility (mole fraction)
# answer = number (no unit)

Q. Recorded solubility (mole fraction) of "NC(=O)c1ccc([N+](=O)[O-])cc1" , please.
A. 0.00332

###

details: in n-propanol, 283.15 K
MEASUREMENT_KIND: solubility (mole fraction)
Kindly provide the number alone.

Q. For "NC(=O)c1ccc([N+](=O)[O-])cc1" , what is its reported solubility (mole fraction)?
A. 0.00096

###

conditions: in isobutanol, 308.15 K
MEASUREMENT_KIND: solubility (mole fraction)

Q. Name the reported solubility (mole fraction) value associated with the compound "NC(=O)c1ccc([N+](=O)[O-])cc1"
A. 0.00233

###

conditions: in n-butanol, 283.15 K
MEASUREMENT_KIND: solubility (mole fraction)
Form rule: numeric answer, no unit written next to it.

Q. Reported solubility (mole fraction), molecule "NC(=O)c1ccc([N+](=O)[O-])cc1" : ____
A. 0.000449

###

conditions: in ethylene glycol, 308.15 K
MEASUREMENT_KIND: solubility (mole fraction)
Respond with the number and no other words.

Q. Any idea what its solubility (mole fraction) is? The molecule is "NC(=O)c1ccc([N+](=O)[O-])cc1"
A. 0.00873

###

conditions: in ethyl acetate, 323.15 K
MEASUREMENT_KIND: solubility (mole fraction)
Form rule: numeric answer, no unit written next to it.

Q. Could you share which solubility (mole fraction) value was measured for "NC(=O)c1ccc([N+](=O)[O-])cc1" ?
A. 0.0103

###

details: in isopropanol, 303.15 K
MEASUREMENT_KIND: solubility (mole fraction)
Just the number, please.

Q. May I ask what solubility (mole fraction) has been recorded for "NC(=O)c1ccc([N+](=O)[O-])cc1" ?
A. 0.00286

###

details: in DMF, 293.15 K
MEASUREMENT_KIND: solubility (mole fraction)
Lab note: record just the number, no unit beside it.

Q. What value of measured solubility (mole fraction) is listed for "NC(=O)c1ccc([N+](=O)[O-])cc1" ?
A. 0.0492

###

conditions: in water, 313.15 K
MEASUREMENT_KIND: solubility (mole fraction)
Field format: numeric only.

Q. What value of measured solubility (mole fraction) is listed for "NC(=O)c1ccc([N+](=O)[O-])cc1" ?
A. 0.00112

###

settings: in DMF, 323.15 K
MEASUREMENT_KIND: solubility (mole fraction)
When you answer, write just the number.

Q. Suppose we examine the compound "NC(=O)c1ccc([N+](=O)[O-])cc1" ; what solubility (mole fraction) value has been reported?
A. 0.123

###

settings: in acetonitrile, 293.15 K
MEASUREMENT_KIND: solubility (mole fraction)
// return just the number, without any unit appended

Q. Would you mind telling me what solubility (mole fraction) value was observed for "NC(=O)c1ccc([N+](=O)[O-])cc1" ?
A. 0.000994

###

conditions: in ethyl acetate, 313.15 K
MEASUREMENT_KIND: solubility (mole fraction)
Lab note: write the figure by itself, no unit.

Q. Consider the compound "NC(=O)c1ccc([N+](=O)[O-])cc1" and give its measured solubility (mole fraction).
A. 0.00706

###

settings: in water, 298.15 K
MEASUREMENT_KIND: solubility (mole fraction)
Please give only the number in your answer, with no unit.

Q. # input compound: "NC(=O)c1ccc([N+](=O)[O-])cc1" ; wanted: its solubility (mole fraction)
A. 0.0006

###

details: in water, 283.15 K
MEASUREMENT_KIND: solubility (mole fraction)
Kindly provide the number alone.

Q. # query: solubility (mole fraction) of entry "NC(=O)c1ccc([N+](=O)[O-])cc1"
A. 0.000322

###

details: in acetonitrile, 303.15 K
MEASUREMENT_KIND: solubility (mole fraction)
Keep it simple and answer with nothing but the number.

Q. Query: solubility (mole fraction); subject: "NC(=O)c1ccc([N+](=O)[O-])cc1"
A. 0.00155

###

details: in ethylene glycol, 288.15 K
MEASUREMENT_KIND: solubility (mole fraction)

Q. # input compound: "NC(=O)c1ccc([N+](=O)[O-])cc1" ; wanted: its solubility (mole fraction)
A. 0.00417

###

conditions: in isopropanol, 308.15 K
MEASUREMENT_KIND: solubility (mole fraction)
When you answer, write just the number.

Q. Dear colleague, I am looking for the recorded solubility (mole fraction) of the following molecule: "NC(=O)c1ccc([N+](=O)[O-])cc1"
A. 0.00341

###

conditions: in isobutanol, 328.15 K
MEASUREMENT_KIND: solubility (mole fraction)

Q. What value of solubility (mole fraction) has been reported for the following molecule? "NC(=O)c1ccc([N+](=O)[O-])cc1"
A. 0.00467

###

conditions: in water, 288.15 K
MEASUREMENT_KIND: solubility (mole fraction)

Q. Look at this compound and give its reported solubility (mole fraction). "NC(=O)c1ccc([N+](=O)[O-])cc1"
A. 0.000395

###

settings: in n-propanol, 288.15 K
MEASUREMENT_KIND: solubility (mole fraction)
Response field accepts a number only; no unit should be typed.

Q. Sample "NC(=O)c1ccc([N+](=O)[O-])cc1" — what was its solubility (mole fraction)?
A. 0.00119

###

settings: in acetonitrile, 308.15 K
MEASUREMENT_KIND: solubility (mole fraction)

Q. Which solubility (mole fraction) value belongs to "NC(=O)c1ccc([N+](=O)[O-])cc1" ?
A. 0.00195

###

conditions: in NMP, 308.15 K
MEASUREMENT_KIND: solubility (mole fraction)
Could you respond with only the numeric value?

Q. // query solubility (mole fraction) value for entry "NC(=O)c1ccc([N+](=O)[O-])cc1"
A. 0.0917

###

conditions: in isobutanol, 318.15 K
MEASUREMENT_KIND: solubility (mole fraction)
Lab note: jot the number down without any unit.

Q. For "NC(=O)c1ccc([N+](=O)[O-])cc1" , what is its reported solubility (mole fraction)?
A. 0.00342

###

settings: in NMP, 328.15 K
MEASUREMENT_KIND: solubility (mole fraction)
Write the number on its own, no unit after it.

Q. What does the record list as solubility (mole fraction) for "NC(=O)c1ccc([N+](=O)[O-])cc1" ?
A. 0.169

###

conditions: in n-butanol, 328.15 K
MEASUREMENT_KIND: solubility (mole fraction)
Reply with just the number.

Q. Which value of solubility (mole fraction) has been reported for "NC(=O)c1ccc([N+](=O)[O-])cc1" in the records?
A. 0.00301

###

conditions: in ethyl acetate, 303.15 K
MEASUREMENT_KIND: solubility (mole fraction)
Simply state the number, no unit and no words.

Q. solubility (mole fraction) for "NC(=O)c1ccc([N+](=O)[O-])cc1" ?
A. 0.00471

###

details: in DMSO, 303.15 K
MEASUREMENT_KIND: solubility (mole fraction)

Q. Form field: reported solubility (mole fraction) of "NC(=O)c1ccc([N+](=O)[O-])cc1"
A. 0.0504

###

conditions: in ethyl acetate, 298.15 K
MEASUREMENT_KIND: solubility (mole fraction)

Q. Fill blank: measured solubility (mole fraction) of the compound "NC(=O)c1ccc([N+](=O)[O-])cc1" is ____.
A. 0.00376
